# testedTarget: Growth hormone secretagogue receptor type 1 (Homo sapiens)
# Sequence (Q92847 whole entry): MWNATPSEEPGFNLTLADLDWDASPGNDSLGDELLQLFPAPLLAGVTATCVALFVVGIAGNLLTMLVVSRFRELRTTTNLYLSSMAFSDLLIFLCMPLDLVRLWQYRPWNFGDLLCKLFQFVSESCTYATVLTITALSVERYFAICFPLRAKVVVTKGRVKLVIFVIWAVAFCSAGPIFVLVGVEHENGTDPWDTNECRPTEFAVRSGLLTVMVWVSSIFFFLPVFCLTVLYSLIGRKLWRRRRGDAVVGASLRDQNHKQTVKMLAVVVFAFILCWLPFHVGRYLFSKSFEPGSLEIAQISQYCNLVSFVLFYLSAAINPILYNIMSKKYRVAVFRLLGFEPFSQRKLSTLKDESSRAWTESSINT
# testDetails: Inhibition of human GHS receptor by FLIPR
# Format: functional
pIC50: −log10 of the molar value.
pIC50 by entry:

- molecularString: "Cc1ccc(COCc2nc(N)nc(N)c2-c2ccc(NCc3ccc(S(C)(=O)=O)cc3)cc2)o1"
  testedTarget: "Growth hormone secretagogue receptor type 1 (Homo sapiens)"
  pIC50: 8.01
- molecularString: "CS(=O)(=O)c1ccc(CNc2ccc(-c3c(N)nc(N)nc3COCc3cccnc3)cc2)cc1"
  testedTarget: "Growth hormone secretagogue receptor type 1 (Homo sapiens)"
  pIC50: 6.73
- molecularString: "CNCc1nc(N)nc(N)c1-c1ccc(NCc2ccc(S(C)(=O)=O)cc2)cc1"
  testedTarget: "Growth hormone secretagogue receptor type 1 (Homo sapiens)"
  pIC50: 5.86
- molecularString: "CS(=O)(=O)c1ccc(CNc2ccc(-c3c(N)nc(N)nc3C3CC3)cc2)cc1"
  testedTarget: "Growth hormone secretagogue receptor type 1 (Homo sapiens)"
  pIC50: 7.72
- molecularString: "CCc1nc(N)nc(NCc2ccccc2)c1-c1ccc(NCc2ccc(S(C)(=O)=O)cc2)cc1"
  testedTarget: "Growth hormone secretagogue receptor type 1 (Homo sapiens)"
  pIC50: 6.45
- molecularString: "CS(=O)(=O)c1ccc(CNc2ccc(-c3c(N)nc(N)nc3CNc3ccccc3)cc2)cc1"
  testedTarget: "Growth hormone secretagogue receptor type 1 (Homo sapiens)"
  pIC50: 8.04
- molecularString: "CC(C)Cc1nc(N)nc(N)c1-c1ccc(NCc2ccc(S(C)(=O)=O)cc2)cc1"
  testedTarget: "Growth hormone secretagogue receptor type 1 (Homo sapiens)"
  pIC50: 7.40
- molecularString: "CC(C)(C)c1nc(N)nc(N)c1-c1ccc(NCc2ccc(S(C)(=O)=O)cc2)cc1"
  testedTarget: "Growth hormone secretagogue receptor type 1 (Homo sapiens)"
  pIC50: 7.96
- molecularString: "CS(=O)(=O)c1ccc(CNc2ccc(-c3c(N)nc(N)nc3CNc3ccc(F)cc3)cc2)cc1"
  testedTarget: "Growth hormone secretagogue receptor type 1 (Homo sapiens)"
  pIC50: 7.92
